List of ID1 Taqman IC50 values.
- measured_target: human ALK-1 (full-length, cell surface) (human, UniProt P37023 22-503)
- test_method_notes: cell-based or functional assay
measurement_type: ID1 Taqman IC50 (nM)

INSERT INTO results (binder, test_value) VALUES
  ('4.58.1 (antibody, human IgG2, V domains shown, Human IgG2 kappa antibody from a hybridoma) VH: QVQLQESGPGLVKPSQTLSLTCTVSGGSISSGDYYWNWIRQHPGKGLEWIGYIYYSGSTYYNPSLKSRVTISVATSKNQFSLKLSSVTAADTAVYYCAREATEGFDYWGQGTLVTVSS VL: EIVLTQSPGTLSLSPGERATLSCRASQSVSTTYLAWYQQKPGQAPRLLIYGASSRATGIPDRFSGSGSGTDFTLTISRLEPEDFALYYCQHYGTSSITFGQGTRLEIK', 14),
  ('1.13.1 (antibody, human IgG2, V domains shown) VH: QVHLQESGPGLVKPSETLSLTCTVSGGSVSSGDYYWNWIRQPPGKGLEWIGYIYYSGSTNYNPSLKSRITISIDTSKNQFSLKLNSVTAADTALYYCARESVAAFDYWGQGTLVTVSS VL: EIVLTQSPGTLSLSPGERATLSCRASQSISSRYLAWYQQEPGQAPRLLIYGASSRATGIPDRFSGSGSGTDFTLTISRLEPEDFAVYYCQHYGSSPITFGQGTRLEIK', 100),
  ('4.72.1 (antibody, human IgG2, V domains shown, Human IgG2 kappa antibody from a hybridoma) VH: QVQLQESGPGLVKPSQTLSLTCTVSGGSISSGEYYWSWIRQHPGKGLEWIGYIFYSGSTYYNPSLKSRVTISLDTSKNQFSLKLSSVTAADTAVYYCARESTDGMDVWGQGTTVTVSS VL: EIVLTQSPGTLSLSPGERATLSCRASQSVSSSYLAWYQRKPGQAPRLLIYGVSSRATGIPDRFSGSGSGTDFTLTISRLEPEDFAVYYCQQYGSSMITFGQGTRLEIK', 21),
  ('1.162.1 (antibody, human IgG2, V domains shown, Human IgG2 kappa antibody from a hybridoma) VH: QVQLQESGPGLVKPSQTLSLICTVSGGSISSGEYYWSWIRQHPGKGLEWIGYIYYSGSTYYNPSLKSRLTISVDTSKNQFSLKLSSVTAADTAVYYCAREGIGAFDIWGQGTMVTVSS VL: EIVLTQSPGTLSLSPGERATLSCRASQSVSSSYLAWYQQKPGQAPRLLIYGASSRATGIPDRFSGSGSGTDFTLTIIRLDPEDFAVYYCQRYGSSPITFGQGTRLEIK', 75),
  ('1.183.1 (antibody, human IgG2, V domains shown) VH: QVQLQESGPGLVKPSETLSLTCTVSGGSISSYYWSWIRQPPGKGLEWIGYIYYSGSTNYNPSLKSRVTISVDTSKNQFSLKLSSVTAADTAVYYCAREDDSSGCPYFDYWGQGTLVTASS VL: EIVMTQSPATLSVSPGERATLSCRASQSVSSNLAWYQQKPGQAPRVLIYGASTRATGIPVRFSGSGSGTEFTLTISSLQSEDFAVYYCQQYNNWPFTFGPGTKVDIK', 58),
  ('4.24.1 (antibody, human IgG2, V domains shown, Human IgG2 kappa antibody from a hybridoma) VH: QVQLQESGPGLVKPSQTLSLTCTVSGGSISSNDYYWNWIRQHPGKGLEWIGYIYYSGSTYYNPSLKSRVTISVDTSKNQFSLKLSSVTAADTAVYYCARESTDGMDVWGQGTTVTVSS VL: ENVLTQSPGTLSLSPGERATLSCRASQSVSSNYLAWYQQKPGQAPRLLIYGASSGATGIPDRFSGSGSGTDFTLTISRLEPEDFAVYYCQHYGSSPITFGQGTRLEIK', 100);
